Where do these numbers come from? They come from patent US6852310B2.

// tyrosinase activity, % of ethanol control lookup, one value per entry
- Tested on: mushroom tyrosinase
- Method notes: Mushroom Tyrosinase Assay
- Assay type: biochemical
- Condition label: 10 uM; slope of 475-nm absorbency vs. untreated ethanol control, L-DOPA substrate
- Description: Mushroom tyrosinase inhibition is indicative of reduction in melanin synthesis, thereby showing skin lightening effect. […] Absorbency is read at 475-nm over the following time points: 0, 2, 4, and 6.5 minutes. The data is plotted as 475-nm absorbency vs. time (minutes) and the slope of the line is calculated (ΔAbs 475 nm/min). Values are expressed as the percentage of the respective untreated ethanol control reaction. […]
Measurement kind: tyrosinase activity, % of ethanol control

1. COCCNC(=O)/C=C\c1ccc(O)cc1O [Resorcinol Amide 2]; 58.0 % of Control
2. CNC(=O)/C=C\c1ccc(O)cc1O [Resorcinol Amide 1]; 53.0 % of Control
3. O=c1ccc2ccc(O)cc2o1 [7-Hydroxy Coumarin, 7-hydroxy coumarin]; 108 % of Control
4. CCc1ccc(O)cc1O; 30.8 % of Control
